Molecular target: Cytochrome P450 2C8 (Homo sapiens)
Sequence (P10632 whole entry): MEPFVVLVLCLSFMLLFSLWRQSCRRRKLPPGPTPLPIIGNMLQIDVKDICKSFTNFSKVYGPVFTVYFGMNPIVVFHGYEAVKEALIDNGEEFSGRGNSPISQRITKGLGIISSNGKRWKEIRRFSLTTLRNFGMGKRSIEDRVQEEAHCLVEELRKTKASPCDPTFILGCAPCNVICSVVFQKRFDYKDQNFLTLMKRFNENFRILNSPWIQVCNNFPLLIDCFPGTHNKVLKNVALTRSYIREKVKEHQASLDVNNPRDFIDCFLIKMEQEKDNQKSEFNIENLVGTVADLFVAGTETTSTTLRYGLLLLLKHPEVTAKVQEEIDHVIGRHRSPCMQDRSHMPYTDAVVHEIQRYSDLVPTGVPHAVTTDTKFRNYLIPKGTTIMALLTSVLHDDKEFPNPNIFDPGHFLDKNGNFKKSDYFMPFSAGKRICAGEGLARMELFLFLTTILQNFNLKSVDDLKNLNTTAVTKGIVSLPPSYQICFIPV
Assay: Inhibition of CYP2C8 in human liver microsomes using paclitaxel as substrate preincubated for 20 mins followed by substrate addition measured after 30 mins in presence of NADPH by LC-MS/MS analysis
Assay type: ADME
parameter: IC50 (µM)
Reply with just the number (in µM).

What is its IC50 for Cytochrome P450 2C8 (Homo sapiens)? Entry: CCCCCCCC(=O)CCc1ccc(O)c(OC)c1 8.3

* * *

Molecular target: CYP2B6 (Homo sapiens, UniProt P20813)
Sequence (P20813 whole entry): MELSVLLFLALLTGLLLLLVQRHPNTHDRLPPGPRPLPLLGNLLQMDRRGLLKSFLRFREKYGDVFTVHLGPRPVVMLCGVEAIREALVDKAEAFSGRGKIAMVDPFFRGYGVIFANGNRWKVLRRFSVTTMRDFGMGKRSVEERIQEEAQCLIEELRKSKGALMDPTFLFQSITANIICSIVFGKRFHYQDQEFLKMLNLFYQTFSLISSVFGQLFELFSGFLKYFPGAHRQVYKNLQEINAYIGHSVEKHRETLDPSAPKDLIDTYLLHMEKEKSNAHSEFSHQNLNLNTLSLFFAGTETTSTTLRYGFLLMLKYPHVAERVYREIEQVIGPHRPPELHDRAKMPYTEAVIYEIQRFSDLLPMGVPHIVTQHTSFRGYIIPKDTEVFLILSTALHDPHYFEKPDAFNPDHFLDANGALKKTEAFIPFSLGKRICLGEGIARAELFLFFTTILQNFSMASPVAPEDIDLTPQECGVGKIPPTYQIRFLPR
Assay: Inhibition of CYP2B6 in human liver microsomes assessed as enzyme-mediated metabolite formation at 10 uM using bupropion as substrate preincubated for 20 mins followed by substrate addition measured after 30 mins in presence of NADPH by LC-MS/MS analysis relative to control
Assay type: ADME
Design: scale not given: the % may be the effect or the level left
Conditions: probe bupropion, read-out: Activity
parameter: activity at 0.5 h, 10 µM (%)
Reply with just the number (in %).

Need activity at 0.5 h, 10 µM, item CCCCCCCC(=O)CCc1ccc(O)c(OC)c1 54.3
